B1: CPEB3 Ribozyme (parent)
chain: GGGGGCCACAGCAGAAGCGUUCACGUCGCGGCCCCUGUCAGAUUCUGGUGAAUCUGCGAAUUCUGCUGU

Variants of: B1
PROTOCOL DETAILS: self-cleavage, relative activity (ratio to wild type); higher = more cleavage; co-transcriptional
A collection of variants and their measured self-cleavage
Write the number on its own, no unit after it.

In the examples that follow, each entry is paired with its recorded self-cleavage.
Q. Return self-cleavage for the following variant: A16G U53A
A. 0.752

Q. Return self-cleavage for the following variant: U20A G48C
A. 0.117

---
Q. Return self-cleavage for the following variant: G50A G68A
A. 1.03

Q. Return self-cleavage for the following variant: C27U U36C
A. 0.201

Q. Return self-cleavage for the following variant: G14C U43C
A. 0.399

Q. Return self-cleavage for the following variant: C22A C34U
A. 0.219

Q. Return self-cleavage for the following variant: G2U G65A
A. 0.0788

Q. Return self-cleavage for the following variant: C24G G41U
A. 0.207

Q. Return self-cleavage for the following variant: G25C C27A
A. 0.146

Q. Return self-cleavage for the following variant: U21A U43C
A. 0.909

Q. Return self-cleavage for the following variant: C6G A42G
A. 0.324

Q. Return self-cleavage for the following variant: C45A U55C
A. 0.516

Q. Return self-cleavage for the following variant: A40U C63A
A. 0.364

Q. Return self-cleavage for the following variant: G2C U62C
A. 0.011

Q. Return self-cleavage for the following variant: G1A C45A
A. 0.0944

Q. Return self-cleavage for the following variant: A10C C39U
A. 0.877
